Numbers sourced from ChEMBL document CHEMBL5291721.

Observed AC50 for Neuronal acetylcholine receptor subunit alpha-4 (Homo sapiens, UniProt P43681), reported per entry below.

Example entries and their recorded answers appear below.
>  <compound>
O=C1C(CC[S+]([O-])c2ccccc2)C(=O)N(c2ccccc2)N1c1ccccc1 (stereo not given) [SULFINPYRAZONE]

>  <experimental_target>
Neuronal acetylcholine receptor subunit alpha-4 (Homo sapiens, UniProt P43681); further: assay procedure not described here
Sequence (P43681 whole entry): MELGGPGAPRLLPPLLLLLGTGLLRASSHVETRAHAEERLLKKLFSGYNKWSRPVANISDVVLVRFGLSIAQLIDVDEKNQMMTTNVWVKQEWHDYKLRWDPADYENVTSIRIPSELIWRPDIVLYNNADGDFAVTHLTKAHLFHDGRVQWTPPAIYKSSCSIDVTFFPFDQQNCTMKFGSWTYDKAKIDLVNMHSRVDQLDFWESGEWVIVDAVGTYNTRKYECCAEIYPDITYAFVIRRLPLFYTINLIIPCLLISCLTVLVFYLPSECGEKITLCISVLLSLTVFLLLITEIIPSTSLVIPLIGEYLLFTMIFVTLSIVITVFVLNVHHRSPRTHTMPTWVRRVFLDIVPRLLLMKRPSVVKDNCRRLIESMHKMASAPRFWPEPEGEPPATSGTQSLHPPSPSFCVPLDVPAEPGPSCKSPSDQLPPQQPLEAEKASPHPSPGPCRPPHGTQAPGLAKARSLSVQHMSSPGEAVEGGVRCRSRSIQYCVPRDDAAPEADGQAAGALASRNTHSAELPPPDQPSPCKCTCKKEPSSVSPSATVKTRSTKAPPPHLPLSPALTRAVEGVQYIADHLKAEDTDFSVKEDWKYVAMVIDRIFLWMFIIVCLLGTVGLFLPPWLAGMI

>  <AC50>
> 10 µM

$$$$
>  <compound>
C[C@H](CCC(=O)O)[C@H]1CC[C@H]2[C@@H]3[C@@H](O)C[C@@H]4C[C@H](O)CC[C@]4(C)[C@H]3CC[C@]12C [URSODIOL]

>  <experimental_target>
Neuronal acetylcholine receptor subunit alpha-4 (Homo sapiens, UniProt P43681); further: assay procedure not described here

>  <AC50>
> 30 µM

$$$$
>  <compound>
CN(C)CC[C@@H](c1ccc(Cl)cc1)c1ccccn1 [DEXCHLORPHENIRAMINE]

>  <experimental_target>
Neuronal acetylcholine receptor subunit alpha-4 (Homo sapiens, UniProt P43681); further: assay procedure not described here

>  <AC50>
> 30 µM

$$$$

Please look at the items below and tell me AC50 for each one, in order.
1. CCC1(c2ccccc2)CCC(=O)NC1=O (stereo not given) [GLUTETHIMIDE]
2. CCCN(CCC)C(=O)Cc1c(-c2ccc(Cl)cc2)nc2ccc(Cl)cn12 [ALPIDEM]

> 10 µM
> 30 µM
